Where these numbers come from: the supplement of paper PMC4954754

Measured XBP1-RLuc splicing reporter activation, listed per entry.
system: HEK293T-Rex XBP1-RLuc; test: XBP1-RLuc splicing reporter activation, triplicate, relative to 500 nM thapsigargin (% of thapsigargin); higher = stronger IRE1/XBP1s reporter activation; conditions: 6.8 µM; 18 h; screen: confirmation

compound structure string	XBP1-RLuc splicing reporter activation
Cc1cc(C)nc(/N=C(\N)Nc2ccc(OCc3ccccc3)cc2)n1	78.3
O=C1N/C(=C/c2ccc(O)cc2)C(=O)N1Cc1ccc(Br)cc1	33.3
O=C(N/N=C\C(Br)=C\c1ccccc1)c1n[nH]c2c1CCCC2	7.86
CN(C)c1ccc(C(=NO)c2ccc(N(C)C)cc2)cc1	6.61
COc1cccc(-c2cc(C(=O)Nc3cc(C)ccc3O)no2)c1	12.6
